Origin of values: PubChem BioAssay AID651599

- testedTarget: Tumor susceptibility gene 101 protein (Homo sapiens) (UniProt Q99816)
- Sequence (Q99816 whole entry, looked up): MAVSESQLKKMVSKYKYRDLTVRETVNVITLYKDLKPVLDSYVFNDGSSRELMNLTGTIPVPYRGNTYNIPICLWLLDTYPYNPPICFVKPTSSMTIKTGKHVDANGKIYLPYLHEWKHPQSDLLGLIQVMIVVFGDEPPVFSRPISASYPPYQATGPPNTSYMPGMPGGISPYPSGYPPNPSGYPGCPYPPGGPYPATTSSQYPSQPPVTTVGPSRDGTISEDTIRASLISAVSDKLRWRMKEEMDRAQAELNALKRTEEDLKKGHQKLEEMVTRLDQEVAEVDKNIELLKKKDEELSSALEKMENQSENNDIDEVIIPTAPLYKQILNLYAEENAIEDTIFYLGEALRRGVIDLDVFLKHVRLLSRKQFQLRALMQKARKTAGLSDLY
- assayRemarks: qHTS Assay for Iinhibitors of HIV-1 Budding by Blocking the Interaction of PTAP/TSG101: Hit Validation in TR assay
- measurementSetup: Tsg101 binding domain + Texas Red-labeled PTAP peptide, fluorescence polarization, 20 min; series mostly up to 57.5 µM
Records with an inconclusive call do not appear. Calls of active or inactive are those of the source. The call rests on the fitted dose curve; in most records, active means well fitted inhibition curve with a large enough effect; inconclusive means small, poorly fitted or top-dose-only effect; inactive means no such curve, though single readings can be large or run the other way.
Please state which outcome applies, choosing from active, inactive

What classification did `Cc1ccc(C)c2nc3sc(C(=O)N4CCCc5ccccc54)c(N)c3cc12` end up with in this test? inactive

What did the test return for `COc1ncnc2c1NC1=C(S2)C(=NCCC(=O)O)CC(C)(C)C1` ? inactive

Hey, what did the test say about `CCN(CC)c1ccc(/C=C/C(=O)c2ccc(Br)cc2)cc1` ? active

Could you kindly confirm the outcome this assay logged for `CCN(c1ccc(N=Cc2c(O)n(Cc3ccc(OC)cc3)c(=O)c3ccccc23)cc1)C(C)C` ? inactive

For `Cc1ccc[n+](-c2nc([O-])sc2/C=N/Nc2ccc([N+](=O)[O-])cc2)c1` , what call appears in the results of this test? inactive

Identify the outcome logged in this assay for the compound shown: `Cc1cccc2cc(/C=C3\N=C(c4ccccc4)OC3=O)c(N3CCOCC3)nc12` inactive

Outcome logged for `CC(=O)Nc1ccc(N=Cc2c(O)ccc3ccccc23)cc1` in this assay: inactive

What is the recorded call for this compound in the test? `CC(C)CCN1C(=O)c2cccc3c(N)ccc(c23)C1=O` inactive

How did this test come out for `Cc1cc(=O)oc(C)c1C(=O)Nc1ccc2ncccc2c1` ? inactive

Recorded call for `COc1ccc2c(C=Nc3c(C)n(C)n(-c4ccccc4)c3=O)c(O)n(Cc3ccco3)c(=O)c2c1` ? inactive

Name the outcome recorded for `COc1ccc(-c2cc(C(F)(F)F)c3c(N)c(C(=O)NCCSC)sc3n2)cc1` in the assay. inactive

How did this test come out for `COc1ccc(/C(O)=C/c2nc3ccccc3n(-c3ccccc3)c2=O)cc1` ? inactive

What did this assay record as the result for `CCCN1CCCc2cc(CN)ccc21` ? inactive

Could you please tell me the result logged for OC(CN1CCN(c2ccccn2)CC1)Cn1c2ccccc2c2ccccc21 (stereo not given) in this assay? inactive

// outcome(item) with item = `CCN1CCN(Cc2ccc(NC(=O)Nc3ccccc3OC)cc2)CC1` inactive

In this assay, the call recorded for `COC(=O)C[C@H]1c2cc(F)ccc2S(=O)(=O)N1c1ccccc1` was what? inactive

Returns: the outcome recorded for `CCCCC(=O)NC1=NC(=O)C(C)(C)S1` in this assay. inactive

Which result was noted for this compound in the test: `Cc1nc(Cl)c2c(n1)NC1=C(O2)C(=O)CCC1` inactive

Recorded test outcome, item CC1C2C(C)N(C)C(=O)N(C)C2N(C)C(=O)N1C (stereo not given) inactive

Query: recorded result category for `C/C(=N/NC(=O)c1ccncc1)c1cc2ccc(O)cc2oc1=O` in this test inactive

Which outcome was entered for the compound Fc1ccc(C2=CC(c3ccco3)n3ncnc3N2)cc1 (stereo not given) in this test? inactive

Tell me the assay call for `O=c1[nH]nc(-c2ccc(F)cc2)cc1Cc1ccc(F)cc1` please. inactive

Record lookup: outcome of this test for `COc1ccc(OC)c(/C=C(\C#N)c2nc3ccccc3c(=O)[nH]2)c1` ? inactive

Recorded test call requested for Cc1nc(Nc2ccc(S(=O)(=O)N3CCCCC3C)cc2)c2nnn(Cc3ccccc3)c2n1 (stereo not given) inactive

I would be grateful if you could indicate the recorded call for `COc1ccc(CCn2c(NN=C(C)C)nc3c2c(=O)[nH]c(=O)n3C)cc1` . inactive

How did this test come out for `N#C/C(=C\c1ccccn1)c1nc2ccccc2s1` ? inactive

Answer briefly: the call reported for `CCN1CC=C2C(C#N)=C(N)C(C#N)(C#N)[C@H](c3cccc(OC)c3OC)[C@H]2C1` in this assay. inactive

Please indicate how the test categorized Cc1ccc(C2C=C(c3ccccc3)Nc3nc(NS(C)(=O)=O)nn32)cc1 (stereo not given) . inactive

Fill in: this test's call for O=C(C1=NN(c2ccccc2)C2C(=O)N(c3cccc(Cl)c3)C(=O)C12)c1ccccc1 (stereo not given) is ___ active

What is the recorded call for this compound in the test? `O=[n+]1c2c(n([O-])c3cc(F)c(N4CCCC4)cc31)CCC2` inactive

Recorded test call requested for `Nc1ccc2c3c(cccc13)-c1ccccc1-2` inactive

I'd appreciate the recorded outcome for `Cc1c(C(=O)N(C)c2cccc(C(F)(F)F)c2)sc2nc3n(c(=O)c12)CCCCC3` from this test. inactive

Can you look up the reported call for `CSC1=NSC2=NC(=O)/C(=C/c3coc4ccc(O)cc4c3=O)C(=N)N12` for me? inactive

I would be grateful if you could indicate the recorded call for `Nc1ccc2nc3c(=O)n(C4CCCCC4)c(=O)[nH]c3nc2c1` . inactive

Could you please tell me the result logged for `Cc1n[nH]c(C)c1N1C(=O)c2cccc3c(N4CCCCCC4)ccc(c23)C1=O` in this assay? inactive

Please let me know the test result on file for `COc1cc2c(cc1OC)-c1cc3ccc4c(c3c[n+]1CC2)OCO4` . inactive

Tell me the recorded outcome of this test for `Nc1ccc2nc3c(=O)[nH]c(=S)[nH]c3nc2c1` . inactive

Which outcome did this test record for the compound `CCCn1nc(-c2ccccc2)c2nc3ccccc3nc21` ? inactive

Could you check what this test reported for `c1ccc2[nH]c3cc4ncnc4cc3nc2c1` ? inactive

Per the assay record, what outcome was assigned to `CC1=CC(=C(C#N)c2nc3ccccc3s2)C=C(C)N1c1ccc(F)cc1F` ? inactive

Which outcome did this test record for the compound `N#C/C(=C\C=C\c1ccccc1)c1nc(-c2ccc3c(c2)OCO3)cs1` ? inactive

Call for entry `CN(C)CCCN1C(=O)c2cccc3c(Br)ccc(c23)C1=O` : inactive

Hi, sorry to bother you, what did the test record for `CCc1c(C)sc(NC(=O)c2ccccc2[N+](=O)[O-])c1C(N)=O` ? inactive

Could you check what this test reported for `CCCCn1c(SCC(=O)c2cc(OC)ccc2OC)nc2cc(S(N)(=O)=O)ccc21` ? inactive

# fetch the recorded call for `CN1C(=O)c2cccc3c(N)ccc(c23)C1=O` here inactive
